system: Acinetobacter baumannii strains; test: Antibiotic susceptibility test (CLSI disk diffusion test method, read per CLSI 2016); assay type: cell-based; settings: host strain YMC16/03/R4461; further: key: ‘S’ means susceptible; ‘I’ means intermediate; ‘R’ means resistant
QUANTITY: susceptibility category (S/I/R)

Reference set (5 entries):
CPD SMILES: CN(C)c1cc(NC(=O)CNC(C)(C)C)c(O)c2c1C[C@H]1C[C@H]3[C@H](N(C)C)C(O)=C(C(N)=O)C(=O)[C@@]3(O)C(O)=C1C2=O
susceptibility category (S/I/R): I
//
CPD SMILES: CC(C)(O/N=C(\C(=O)N[C@@H]1C(=O)N2C(C(=O)[O-])=C(C[n+]3ccccc3)CS[C@H]12)c1csc(N)n1)C(=O)O
susceptibility category (S/I/R): R
//
CPD SMILES: CCN1CCN(C(=O)N[C@@H](C(=O)N[C@@H]2C(=O)N3[C@@H]2SC(C)(C)[C@@H]3C(=O)O)c2ccccc2)C(=O)C1=O
susceptibility category (S/I/R): R
//
CPD SMILES: CO/N=C(\C(=O)N[C@@H]1C(=O)N2C(C(=O)O)=C(COC(C)=O)CS[C@H]12)c1csc(N)n1
susceptibility category (S/I/R): I
//
CPD SMILES: C[C@@H](O)[C@H]1C(=O)N2C(C(=O)O)=C(SCCN=CN)C[C@H]12
susceptibility category (S/I/R): R

Here's the next entry for you.
[Q] Supply reported susceptibility category (S/I/R) belonging to this compound: "C[C@H]1COc2c(N3CCN(C)CC3)c(F)cc3c(=O)c(C(=O)O)cn1c23"
[A] R
